All values here come from PubChem BioAssay (NCI).

# Test system: RXF 393 renal
# Procedure details: NCI tumour cell line growth inhibition, 48 h
Reported endpoint: TGI

Prompt: Recall and state the measured TGI for O=C1CCCC1C(=O)Nc1ccc2ccccc2c1 (configuration not stated) .
Completion: > 100 µM

Prompt: Recall and state the measured TGI for CCOC(=O)C1=CN=C2C(=O)N(c3ccccc3)N(C)C2(C)C1=N (configuration not stated) .
Completion: > 100 µM

Prompt: Recall and state the measured TGI for COC(=O)C1=C(O)C(O)=C(C(=O)OC)CC1 .
Completion: 35.1 µM

Prompt: Recall and state the measured TGI for O=S(=O)(c1cc(Cl)ccc1Cl)N1CCN(S(=O)(=O)c2cc(Cl)ccc2Cl)CC1 .
Completion: > 100 µM

Prompt: Recall and state the measured TGI for CCCCC1(N=[N+]=[N-])C(=O)c2cccc3c2N(CCC3)C1=O (configuration not stated) .
Completion: > 100 µM

Prompt: Recall and state the measured TGI for CCC12C=CCN3CC[C@]4(C(=C(C(=O)OC)[C@@H]1Nc1ncnc5c1ncn5C1OC(COC(C)=O)C(OC(C)=O)C1OC(C)=O)Nc1ccccc14)C32 (some centres not stated) .
Completion: 3.92 µM

Prompt: Recall and state the measured TGI for COc1ccccc1/C=C1\COc2ccc(O)c(O)c2C1=O .
Completion: 2.97 µM

Prompt: Recall and state the measured TGI for CCS[C@H]1NC(=O)C1[C@H](C)O[Si](C)(C)C(C)(C)C (some centres not stated) .
Completion: > 100 µM

###

# Tested on: 786-0 renal
# Procedure details: NCI tumour cell line growth inhibition, 48 h
Measured TGI accompanies every entry in the list below.

Prompt: Please respond with reported TGI (system 786-0 renal) for CC1(C)CCC[C@]2(C)[C@@H]1CC[C@@]13O[C@@H]1C1=C(CO)C(=O)O[C@]14O[C@@H]4[C@@H]23 .
Completion: 29.8 µM

###

# Test system: IGROV1 ovarian
# Procedure details: NCI tumour cell line growth inhibition, 48 h
Reported endpoint: TGI

molecule=O=C(Nc1ccccc1)c1cc2c(cc1Cl)Sc1nccn1S2(=O)=O recorded_value="> 72.1 µM"

Prompt: Please respond with reported TGI (system IGROV1 ovarian) for COc1ccc(C2SC(N)=Nc3c2c(C)nn3C(=O)c2ccncc2)cc1 (stereo not drawn) .
Completion: > 100 µM

Prompt: Please respond with reported TGI (system IGROV1 ovarian) for O=[N+]([O-])c1ccc2c(c1)nc(Cc1ccccc1)n2C[C@@H]1CCCN2CCCCC12 (stereo partly drawn) .
Completion: > 100 µM

###

Measured TGI accompanies every entry in the list below.
# Test system: NCI-H23 lung
# Procedure details: NCI tumour cell line growth inhibition, 48 h

molecule="CCS[C@H]1NC(=O)C1[C@H](C)O[Si](C)(C)C(C)(C)C (some centres not stated)" measurement_target="NCI-H23 lung" recorded_value="> 100 µM"

Prompt: Please respond with reported TGI (system NCI-H23 lung) for COCn1c2ccc(OC(C)=O)cc2c2c(=O)oc(C)nc21 .
Completion: > 100 µM

Prompt: Please respond with reported TGI (system NCI-H23 lung) for O=C(O)Cc1ccc(Oc2nc3ccccc3nc2-c2cccs2)cc1 .
Completion: > 100 µM

Prompt: Please respond with reported TGI (system NCI-H23 lung) for Oc1nc(N/N=C/c2c[nH]c3ccccc23)[nH]c1/C=C1\C=Nc2ccccc21 .
Completion: 38.5 µM

Prompt: Please respond with reported TGI (system NCI-H23 lung) for CC(=O)OCC1OC(n2cc(F)c(=O)[nH]c2=O)C(OC(C)=O)C1OC(C)=O (configuration not stated) .
Completion: > 100 µM

Prompt: Please respond with reported TGI (system NCI-H23 lung) for O=S(=O)(c1cc(Cl)ccc1Cl)N1CCN(S(=O)(=O)c2cc(Cl)ccc2Cl)CC1 .
Completion: 18.7 µM

Prompt: Please respond with reported TGI (system NCI-H23 lung) for COc1ccc([C@H]2c3cc(OC)c(OC)cc3C=C(C=O)C2CO)cc1OC (some centres not stated) .
Completion: > 100 µM

Prompt: Please respond with reported TGI (system NCI-H23 lung) for Cc1c(C(=O)/C=C/c2ccco2)[n+](=O)c2ccccc2n1[O-] .
Completion: > 100 µM

Prompt: Please respond with reported TGI (system NCI-H23 lung) for C/C(O)=C/c1nc2ccccc2nc1/C=C(/C)O .
Completion: > 100 µM

Prompt: Please respond with reported TGI (system NCI-H23 lung) for C#Cc1cccc(NC(=O)Nc2ccccc2NC(=O)CCl)c1 .
Completion: 48.5 µM

Prompt: Please respond with reported TGI (system NCI-H23 lung) for Nc1nc2nc3c(nc2c(=O)[nH]1)CN(c1ccc(C(=O)O)cc1)C3=O .
Completion: > 100 µM

Prompt: Please respond with reported TGI (system NCI-H23 lung) for CC[C@]1(O)C[C@@H]2CN(Cc3c([nH]c4ccccc34)[C@@](C(=O)OC)(c3cc4c(cc3OC)N(C)[C@H]3[C@@](O)(C(=O)OC)[C@H](OC(C)=O)[C@]5(CC)[C@@H]6C[C@@H]6CN6CC[C@]43[C@@H]65)C2)C1 .
Completion: > 4.38 µM

###

# System: NCI-H522 lung
# Procedure details: NCI tumour cell line growth inhibition, 48 h
Reported endpoint: TGI

Some solved cases for reference:
compound=COc1cc(Oc2nc3ccccc3nc2C(=O)O)cc(OC)c1OC measurement_target="NCI-H522 lung" reported_endpoint=TGI recorded_value="> 100 µM"
compound=COc1c(-c2cc(C)c(Cl)c(=O)[nH]2)c(O)c(OC)c2occc12 measurement_target="NCI-H522 lung" reported_endpoint=TGI recorded_value="> 100 µM"
compound=Nn1c(Cc2ccc(Cl)cc2)n[nH]c1=O measurement_target="NCI-H522 lung" reported_endpoint=TGI recorded_value="> 100 µM"

Prompt: Recall and state the measured TGI for Cc1c(C(=O)/C=C/c2ccco2)[n+](=O)c2ccccc2n1[O-] .
Completion: > 100 µM

###

# Tested on: BT-549 breast
# Procedure details: NCI tumour cell line growth inhibition, 48 h
Measured TGI accompanies every entry in the list below.

Some solved cases for reference:
molecule=Cc1c2c(n3c(nc4ccccc43)c1C#N)SCC2 recorded_value="> 10 µM"
molecule="CC1CN(CCO)CC(C)O1 (stereo not drawn)" recorded_value="> 100 µM"

Now look at this one.
Prompt: Recall and state the measured TGI for O=C(Nc1ccc(Cl)cc1)NS(=O)(=O)c1ccc2c(c1)CCC2 .
Completion: > 100 µM

###

Measured TGI accompanies every entry in the list below.
# System: SW-620 colon
# Procedure details: NCI tumour cell line growth inhibition, 48 h

Prompt: Recall and state the measured TGI for Cc1cccc2c1C(=O)C1(Cc3ccccc3C1=O)C2 (stereo unspecified) .
Completion: > 100 µM

Prompt: Recall and state the measured TGI for C=Nc1ccc([N+](=O)[O-])cc1 .
Completion: > 100 µM

Prompt: Recall and state the measured TGI for COC(c1ccsc1)C(C#N)(C#N)N=Cc1ccsc1 (stereo unspecified) .
Completion: 28.4 µM

Prompt: Recall and state the measured TGI for COc1ccc2oc(S(=O)(=O)N3CC(CCl)c4ccc([N+](=O)[O-])cc43)cc2c1 (stereo unspecified) .
Completion: > 100 µM

Prompt: Recall and state the measured TGI for CN(C)CCCn1cnc2ncccc2c1=O .
Completion: > 100 µM

###

# System: KM12 colon
# Procedure details: NCI tumour cell line growth inhibition, 48 h
Reported endpoint: TGI

Some solved cases for reference:
compound=COc1c(-c2cc(C)c(Cl)c(=O)[nH]2)c(O)c(OC)c2occc12 reported_endpoint=TGI recorded_value="> 100 µM"
compound="CC1(C)C2CCC1(CS(=O)(=O)Nc1ccccc1)C(=O)C2 (stereo unspecified)" reported_endpoint=TGI recorded_value="> 100 µM"
compound="COc1cc2c(cc1OC)C1CN3C(=O)CCC3C(O)C1c1cc(OC)c(OC)cc1-2 (stereo unspecified)" reported_endpoint=TGI recorded_value="> 100 µM"

Prompt: Recall and state the measured TGI for CC(C)(C)c1cc(C(O)(C(=O)O)C(=O)O)cc(C(C)(C)C)c1O .
Completion: > 100 µM

Prompt: Recall and state the measured TGI for Cc1c(CNc2ccc(Cl)c(C(=O)NC(CC(=O)O)C(=O)O)c2)ccc2nc(N)nc(N)c12 (stereo unspecified) .
Completion: > 1000 µM

Prompt: Recall and state the measured TGI for CCNC(=S)N/N=C/c1cc(OC)ccc1O .
Completion: > 100 µM

Prompt: Recall and state the measured TGI for CCc1nc(N)nc(N)c1-c1ccc(Cl)cc1 .
Completion: > 100 µM

Prompt: Recall and state the measured TGI for Brc1ccc2c(-c3nc(-c4c[nH]c5ccccc45)cs3)c[nH]c2c1 .
Completion: > 47.3 µM

Prompt: Recall and state the measured TGI for CC(C)CC(=O)NC(Nc1ccc(S(=O)(=O)Nc2ncccn2)cc1)(C(F)(F)F)C(F)(F)F .
Completion: > 100 µM

Prompt: Recall and state the measured TGI for Cc1c(C(=O)/C=C/c2ccco2)[n+](=O)c2ccccc2n1[O-] .
Completion: > 100 µM

Prompt: Recall and state the measured TGI for CC(C)NC(=O)OCc1nnn2c1C(OC(=O)NC(C)C)CC2 (stereo unspecified) .
Completion: > 100 µM
